protocol.notes: Quantitative High-Throughput drug screen in 47 multiple myeloma cell lines against the NCATS MIPE library collection: UTMC2_PLB cell viability assay (AID 1919868); also: nearly all actives have a fitted effect of over 55% in size
test.settings: CellTiter-Glo ATP luminescence, 48 h
Inconclusive results are not listed. The source made the active and inactive calls. Calls follow the shape of the dose curve; as a rule, active = well fitted cell-killing curve with a large enough effect; inconclusive = small, poorly fitted or top-dose-only effect, or effect the other way; inactive = no such curve, though single readings can be large or run the other way.
Labels: YES (active), NO (inactive)

# compound, discrete.label
rows = [
    ("C=CCn1c(=O)c2cnc(Nc3ccc(N4CCN(C)CC4)cc3)nc2n1-c1cccc(C(C)(C)O)n1", "YES"),
    ("Cc1[nH]nc2ccc(-c3cncc(OC[C@@H](N)Cc4ccccc4)c3)cc12", "YES"),
    ("Clc1cccc(-n2nnnc2NCc2ccccc2Oc2ccccn2)c1Cl", "NO"),
    ("C=CC(=O)Nc1cccc(Oc2nc(Nc3ccc(N4CCN(C)CC4)cc3)ncc2Cl)c1", "YES"),
    ("CNC(=O)CN1CCC(Oc2cc3c(Nc4cccc(Cl)c4F)ncnc3cc2OC)CC1", "YES"),
    ("NC(=O)Nc1cc(-c2cccc(F)c2)sc1C(=O)N[C@H]1CCCNC1", "YES"),
    ("O=C(O)C1(Cc2cccc(Nc3nccs3)n2)CCC(Oc2cccc(Cl)c2F)CC1 (configuration not stated)", "YES"),
    ("C[C@@H](Oc1cc(-c2cnn(C3CCNCC3)c2)cnc1N)c1c(Cl)ccc(F)c1Cl", "YES"),
    ("Cc1cc(Nc2cc(N3CCN(C)CC3)nc(C=Cc3ccccc3)n2)n[nH]1", "YES"),
    ("CCN1CCN(CC(=O)Nc2ccc(-c3cccc4c(=O)cc(N5CCOCC5)oc34)c3sc4ccccc4c23)CC1", "YES"),
    ("O=c1c2ccccc2nc2n1CCc1c-2[nH]c2ccccc12", "NO"),
    ("COc1ccc(OC)c(-c2nnc3ccc(-c4ccc(OC)c(O[C@@H]5CCOC5)c4)nn23)c1", "YES"),
    ("NC(=O)c1cccc2cn(-c3ccc([C@@H]4CCCNC4)cc3)nc12", "NO"),
    ("O=C(Nc1ncc(-c2cc(C(F)F)nn2-c2c(Cl)cccc2Cl)s1)C1CC1", "YES"),
    ("CC[C@@H]1C(=O)N(C)c2cnc(Nc3ccc(C(=O)NC4CCN(C)CC4)cc3OC)nc2N1C1CCCC1", "NO"),
    ("CC(C)c1cc(C(=O)N2Cc3ccc(CN4CCN(C)CC4)cc3C2)c(O)cc1O", "YES"),
    ("Cc1cc(Nc2cc(CN3CCOCC3)c3nc(C)c(Cc4ccc(Cl)cc4F)n3n2)n[nH]1", "YES"),
    ("CNc1nccc(-c2cccnc2Oc2cc(C(=O)Nc3cccc(C(F)(F)F)c3)ccc2C)n1", "YES"),
    ("CCCCc1nc2cc(C=CC(=O)NO)ccc2n1CCN(CC)CC", "YES"),
    ("COC(=O)c1ccc2c(C(=Nc3ccc(N(C)C(=O)CN4CCN(C)CC4)cc3)c3ccccc3)c(O)[nH]c2c1", "YES"),
    ("C1=CCOCc2cc(ccc2OCCN2CCCC2)Nc2nccc(n2)-c2cccc(c2)OCC1", "YES"),
    ("COc1cc2c(NC3CCN(C(C)C)CC3)nc(C3CCCCC3)nc2cc1OCCCN1CCCC1", "YES"),
    ("CC(=O)OCC(=O)[C@@]1(O)[C@H](C)C[C@H]2[C@@H]3C=C(C)C4=Cc5c(cnn5-c5ccccc5)C[C@]4(C)[C@@H]3[C@@H](O)C[C@@]21C", "YES"),
    ("Nc1cc(C(F)(F)F)c(-c2cc(N3CCOCC3)nc(N3CCOCC3)n2)cn1", "YES"),
    ("Cn1cc(-c2[nH]c3cc(NC(=O)[C@H](N)C4CCCCC4)cc4c3c2C=NNC4=O)cn1", "YES"),
    ("COc1cc2nccc(Oc3ccc(NC(=O)C4(C(=O)Nc5ccc(F)cc5)CC4)cc3)c2cc1OC", "YES"),
    ("O=C(CCCCCCC(=O)Nc1ccc([C@H]2O[C@@H](CSc3nc(-c4ccccc4)c(-c4ccccc4)o3)C[C@@H](c3ccc(CO)cc3)O2)cc1)NO", "YES"),
]

---

protocol.notes: qHTS of pediatric cancer cell lines to identify multiple opportunities for drug repurposing: Confirmatory screen for Rh18 cells (AID 1347125);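 also: cells exposed to compound for 48 h; nearly all actives have a fitted effect of over 55% in size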
test.settings: Rh18 rhabdomyosarcoma cells, viability; series mostly up to 45.9 µM
Results filed as inconclusive are left out. Activity calls are given as the source filed them. Calls follow the shape of the dose curve; as a rule, active = well fitted cell-killing curve with a large enough effect; inconclusive = small, poorly fitted or top-dose-only effect, or effect the other way; inactive = flat fitted curve, though single readings scatter.
Labels: active, inactive

# molecule, discrete.label
data = [
    ("CCn1cc(-c2ccnc3[nH]c(-c4cccc(CN(C)C)c4)cc23)c(-c2ccc(NC(=O)N(C)C)cc2)n1", "active"),
    ("CNC(=O)c1ccccc1Nc1nc(Nc2ccc(N3CCOCC3)cc2OC)ncc1Cl", "active"),
    ("Cc1[nH]c2ccccc2c1CCNCc1ccc(C=CC(=O)NO)cc1", "active"),
    ("CS(=O)(=O)N1CCN(Cc2cc3nc(-c4cccc5[nH]ncc45)nc(N4CCOCC4)c3s2)CC1", "active"),
    ("CN(C)Cc1c(C(=O)NCCOc2ccc(C(=O)NO)cc2)oc2ccccc12", "active"),
    ("CC[C@@H]1C(=O)N(C)c2cnc(Nc3ccc(C(=O)NC4CCC(N5CCN(CC6CC6)CC5)CC4)cc3OC)nc2N1C(C)C (stereo partly drawn)", "inactive"),
    ("CC=C1NC(=O)[C@H]2CSSCCC=C[C@H](CC(=O)N[C@H](C(C)C)C(=O)N2)OC(=O)[C@H](C(C)C)NC1=O", "inactive"),
    ("Nc1ccccc1NC(=O)c1ccc(CNc2nccc(-c3cccnc3)n2)cc1", "active"),
]

---

protocol.notes: Primary qHTS for inhibitors of nuclear receptor binding SET domain protein 2 (NSD2) in an isogenic RCH-ACV NSD2 p.E1099K mutant (9B) (AID 1645876); also: nearly all actives have a fitted effect of over 70% in size
test.settings: RCH-ACV (leukaemia line) NSD2 E1099K (9B) viability, CellTiter-Glo, 72 h; series mostly up to 44.9 µM
Results filed as inconclusive are left out. Calls of active or inactive are those of the source. The call rests on the fitted dose curve; in most records, active means well fitted inhibition curve with a large enough effect; inconclusive means small, poorly fitted or top-dose-only effect; inactive means flat fitted curve, though single readings scatter.
Labels: active, inactive

# compound, discrete.label
records = [
    ("O=C(NC1CCNCC1)c1[nH]ncc1NC(=O)c1c(Cl)cccc1Cl", "active"),
    ("CN(c1ncccc1CNc1nc(Nc2ccc3c(c2)CC(=O)N3)ncc1C(F)(F)F)S(C)(=O)=O", "active"),
    ("CN(C)c1nc(Cc2ccc(NC(=O)c3ccc4ccccc4c3)cc2)nc(Cl)c1CC(=O)O", "inactive"),
    ("C[C@]1(CO)CN(c2cc(C(=O)Nc3ccc4c(c3)-c3c(c(C(N)=O)nn3-c3ccc(F)cc3)CC4)c(Cl)cn2)C[C@@]1(C)CO", "active"),
    ("O=c1[nH]c(=O)n(C2CCCO2)cc1F (stereo not given)", "inactive"),
    ("CC(C)(O)c1cc2nc(-c3cnc(N)nc3)nc(N3CCOCC3)c2s1", "active"),
    ("Cn1c(CNc2ccc(C(=N)N)cc2)nc2cc(C(=O)N(CCC(=O)O)c3ccccn3)ccc21", "inactive"),
    ("O=C1CCC[C@@H]2[C@H]3CCC[N+]4([O-])CCC[C@@H](CN12)[C@@H]34 (stereo not given in full)", "inactive"),
    ("O=C(O)c1ccc2cc(-c3ccc(O)c(C45CC6CC(CC(C6)C4)C5)c3)ccc2c1", "active"),
    ("CNC(=O)c1ccc(N2C(=S)N(c3cnc(C#N)c(C(F)(F)F)c3)C(=O)C23CCC3)cc1F", "inactive"),
    ("COc1cc(C(C)C)c2c(c1)S(=O)(=O)N(COc1cc(=O)n3cccc(OCCN4CCCCC4)c3n1)C2=O", "active"),
    ("O=C(O)C1(Cc2cccc(Nc3nccs3)n2)CCC(Oc2cccc(Cl)c2F)CC1 (stereo not given)", "active"),
    ("CC(C)(C)OC(=O)Nc1ccc(-c2cc(C(=O)NCCCCCCC(=O)NO)no2)cc1", "active"),
    ("Cc1cc(C(=O)N2CCN(c3cccc(Cl)c3)CC2)n(-c2ccccc2)n1", "active"),
    ("Nc1ccc(C(=O)c2cc3c(ccc4ccccc43)[nH]2)cc1", "active"),
    ("Cc1ccc(NC(=O)C2(c3ccc4c(c3)OC(F)(F)O4)CC2)nc1-c1cccc(C(=O)O)c1", "inactive"),
    ("CC[C@H](CO)Nc1nc(NCc2ccccc2)c2ncn(C(C)C)c2n1", "active"),
    ("COc1ccc2c(OCc3nnc4ccc(-c5ccccc5)nn34)ccnc2c1", "inactive"),
    ("Cc1c(NC(=O)OC[C@@H]2COCCN2)cn2ncnc(Nc3ccc4c(cnn4Cc4cccc(F)c4)c3)c12", "active"),
    ("N#Cc1c(O)c2c(-c3ccc(-c4ccccc4O)cc3)csc2[nH]c1=O", "inactive"),
    ("NC(=O)c1c(OCc2c(F)cc(Br)cc2F)nsc1NC(=O)NCCCCN1CCCC1", "active"),
    ("CC(=O)OCCN1C(=O)c2c(C)nc3ccc(S(=O)(=O)N4CCOCC4)cc3c2C1=O", "inactive"),
    ("CCN1CCN(Cc2ccc(-c3cc4c(N[C@H](C)c5ccccc5)ncnc4[nH]3)cc2)CC1", "active"),
    ("O=C(O)Cn1nnc(-c2cc(N3CCC(Oc4cc(F)ccc4Br)CC3)no2)n1", "inactive"),
    ("CCCCOc1c(C(=O)c2c(F)cc(C)cc2F)cnc2n[nH]cc12", "active"),
    ("CC1COC2(CCN(c3nc(=O)c4cc(C(F)(F)F)cc([N+](=O)[O-])c4s3)CC2)O1 (stereo not given)", "inactive"),
    ("Cn1cc(-c2ccncc2)c(-c2ccc(OCc3ccc4ccccc4n3)cc2)n1", "active"),
    ("Cc1ccc(C(N)=O)cc1Nc1nccc(-c2cn(C(C)C)c3cnccc23)n1", "active"),
    ("COc1ccc(CC2c3cc(OC)c(OC)cc3CC[N+]2(C)CCC(=O)OCCCCCOC(=O)CC[N+]2(C)CCc3cc(OC)c(OC)cc3C2Cc2ccc(OC)c(OC)c2)cc1OC (stereo not given)", "active"),
    ("COCCn1c2c([n+](Cc3cnccn3)c1C)C(=O)c1ccccc1C2=O", "active"),
]
